# assayName: Solubility (18 hr vortex mixing at room temperature, filtration, HPLC)
# Type: physicochemical
# condition: 20 °C, organic solvent or mixture, thermodynamic from solid; PEG400; room temperature
readoutLabel: solubility at 18 h (mg/mL)

Illustrative cases are given below, each with its answer.
>  <molecule>
O=C(Cc1ccccc1)Nc1ccc(CCCCc2nnc(NC(=O)Cc3ccccc3)s2)nn1 [Compound 295]

>  <solubility at 18 h, mg/mL>
1.64

$$$$
>  <molecule>
CCCC(=O)OCN(C(=O)Cc1ccccc1)c1nnc(CCCCc2ccc(NC(=O)Cc3ccccc3)nn2)s1 [Compound 402]

>  <solubility at 18 h, mg/mL>
30.2

$$$$

(1) O=C(Cc1cccc(OC(F)(F)F)c1)Nc1ccc(CCCCc2nnc(NC(=O)[C@@H](O)c3ccccc3)s2)nn1 [Compound 703]
(2) O=C(Cc1cccc(OC(F)(F)F)c1)Nc1ccc(CCCCc2nnc(NC(=O)Cc3ccccc3)s2)nn1 [Compound 585]
(3) O=C(Cc1cccc(OC(F)(F)F)c1)Nc1ccc(CCCCc2nnc(NC(=O)C(O)c3cccc(Cl)c3)s2)nn1 (centres unmarked) [Compound 447]
Hi! Can you put these in order of solubility at 18 h, lowest number first? Respond with the label ranking, as requested. 2, 1, 3

====

# measuredOn: recombinant form of Glutaminase 1 (GAC) (Homo sapiens, UniProt O94925)
# assayName: Recombinant Enzyme Assay (GAC coupled to GDH, NADH absorbance, no preincubation)
# Type: biochemical
# condition: no preincubation; read-out: GAC Delta N2 IC50 no preinc
readoutLabel: IC50 (nM)

>  <compound>
Cc1cc(C)n(CC(=O)Nc2nnc(CCSCCc3nnc(NC(=O)Cn4nc(C)cc4C)s3)s2)n1

>  <IC50 (nM)>
560

$$$$
>  <compound>
COC(=O)C(CC(=O)Nc1nnc(CCCCc2nnc(NC(=O)CC(C(=O)O)c3ccccc3)s2)s1)c1ccccc1 (stereo not shown)

>  <IC50 (nM)>
1500

$$$$
>  <compound>
CC(C)(C)OC(=O)N1CCCC(CC(=O)Nc2nnc(CCCCc3nnc(NC(=O)CC4CCCN(C(=O)OC(C)(C)C)C4)s3)s2)C1 (stereo not shown)

>  <IC50 (nM)>
620

$$$$
>  <compound>
N#Cc1cccc(CC(=O)Nc2nnc(CCSCCc3nnc(NC(=O)Cc4cccc(C#N)c4)s3)s2)c1

>  <IC50 (nM)>
270

$$$$
>  <compound>
O=C(Cc1cc2ccccc2s1)Nc1nnc(CCSCCc2nnc(NC(=O)Cc3cc4ccccc4s3)s2)s1

>  <IC50 (nM)>
13000

$$$$
>  <compound>
O=C(Cc1ccccc1)Nc1nnc(CCCCc2nnc(NC(=O)C(O)(CO)c3ccccc3)s2)s1 (stereo not shown)

>  <IC50 (nM)>
290

$$$$
>  <compound>
C[C@H](O)C(=O)Nc1nnc(CCCCc2nnc(NC(=O)Cc3ccccc3)s2)s1

>  <IC50 (nM)>
2500

$$$$
>  <compound>
O=C(Cc1cccs1)Nc1nnc(CCCCc2nnc(NC(=O)Cc3cccs3)s2)s1

>  <IC50 (nM)>
180

$$$$
>  <compound>
COc1ccc(CC(=O)Nc2nnc(CCSCCc3nnc(NC(=O)Cc4ccc(OC)c(OC)c4)s3)s2)cc1OC

>  <IC50 (nM)>
340

$$$$
>  <compound>
O=C(C[C@@H](O)c1ccccc1)Nc1nnc(CCCCc2nnc(NC(=O)C[C@@H](O)c3ccccc3)s2)s1

>  <IC50 (nM)>
1800

$$$$

(A) O=C(Nc1nnc(CCCCc2nnc(NC(=O)C(O)c3cccc(Cl)c3)s2)s1)C(O)c1cccc(Cl)c1 (stereo not shown)
(B) CC(CCC(C)c1nnc(NC(=O)Cc2ccccc2)s1)c1nnc(NC(=O)Cc2ccccc2)s1 (stereo not shown)
(C) O=C(Cc1ccccc1F)Nc1nnc(CCSCCc2nnc(NC(=O)Cc3ccccc3F)s2)s1
(D) CC(=O)OCC(C(=O)Nc1nnc(CCSCCc2nnc(NC(=O)C(COC(C)=O)c3ccccc3)s2)s1)c1ccccc1 (stereo not shown)
(E) O=C(Cc1ccccc1)Nc1nnc(CCNCCc2nnc(NC(=O)Cc3ccccc3)s2)s1
In this exercise, place the 5 compounds in ascending sequence of their recorded IC50. Provide the ranking by listing each label in its place in the requested order. C, A, D, E, B
(C: 200 nM, A: 520 nM, D: 2800 nM, E: 15000 nM, B: 32000 nM)

====

# assayName: Solubility (18 hr vortex mixing at room temperature, filtration, HPLC)
# Assay type: physicochemical
# condition: 50 mM citrate buffer pH 5.4, 20 °C, aqueous buffer, thermodynamic from solid; 50 mM Cit pH 5.4; room temperature
readoutLabel: solubility at 18 h

Illustrative cases are given below, each with its answer.
>  <compound>
O=C(Cc1ccccc1)Nc1ccc(CCCCc2nnc(NC(=O)Cc3ccccc3)s2)nn1

>  <result>
< 2 µg/mL

$$$$
>  <compound>
O=C(Cc1cccc(OC(F)(F)F)c1)Nc1ccc(CCCCc2nnc(NC(=O)[C@@H](O)c3ccccc3)s2)nn1

>  <result>
< 4 µg/mL

$$$$
>  <compound>
CCCC(=O)OCN(C(=O)Cc1ccccc1)c1nnc(CCCCc2ccc(NC(=O)Cc3ccccc3)nn2)s1

>  <result>
< 4 µg/mL

$$$$
>  <compound>
O=C(Cc1cccc(OC(F)(F)F)c1)Nc1ccc(CCCCc2nnc(NC(=O)C(O)c3cccc(Cl)c3)s2)nn1 (centres unmarked)

>  <result>
< 4 µg/mL

$$$$

In plain terms, O=C(Cc1cccc(OC(F)(F)F)c1)Nc1ccc(CCCCc2nnc(NC(=O)Cc3ccccc3)s2)nn1 has a documented solubility at 18 h of < 2 µg/mL

====

# measuredOn: recombinant form of Glutaminase 1 (GAC) (Homo sapiens, UniProt O94925)
# assayName: Recombinant Enzyme Assay (GAC coupled to GDH, NADH absorbance, no preincubation)
# Assay type: biochemical
# condition: no preincubation; read-out: GAC Delta N2 IC50 no preinc
pIC50: −log10 of the molar value.
readoutLabel: pIC50

>  <molecule>
O=C(Nc1nnc(CCSCCc2nnc(NC(=O)c3cc4ccccc4o3)s2)s1)c1cc2ccccc2o1

>  <pIC50>
4.80

$$$$
>  <molecule>
Nc1ccc(CC(=O)Nc2nnc(CCSCCc3nnc(NC(=O)Cc4ccc(N)cc4)s3)s2)cc1

>  <pIC50>
6.52

$$$$
>  <molecule>
O=C(Nc1nnc(CCSCCc2nnc(NC(=O)[C@@H](O)c3ccccc3)s2)s1)[C@@H](O)c1ccccc1

>  <pIC50>
6.05

$$$$

(A) O=C(Nc1nnc(CCCCc2nnc(NC(=O)C(O)(CO)c3ccccc3)s2)s1)C(O)(CO)c1ccccc1 (stereo not shown)
(B) CCC(C)C(=O)Nc1nnc(CCCCc2nnc(NC(=O)C(C)CC)s2)s1 (stereo not shown)
Decide: A or B , by lowest recorded pIC50. Answer by quoting the chosen item's label. B

====

# measuredOn: recombinant form of Glutaminase 1 (GAC) (Homo sapiens)
# assayName: Recombinant Enzyme Assay - Time Dependence (60 minutes enzyme/compound preincubation)
# Format: biochemical
# condition: read-out: GAC Delta N2 IC50 60 min
pIC50: −log10 of the molar value.
readoutLabel: pIC50

(1) CC(C(=O)Nc1ccc(CCCCc2nnc(NC(=O)Cc3ccccc3)s2)nn1)c1ccc(F)c(CN(C)C(=O)OC(C)(C)C)c1 (stereo not shown)
(2) CC(C)(C)OC(=O)NCc1cc(CC(=O)Nc2nnc(CCCCc3ccc(NC(=O)Cc4ccccc4)nn3)s2)ccc1F
(3) Nc1ccc(CCCCc2nnc(NC(=O)C(O)c3cccc(Cl)c3)s2)nn1 (stereo not shown)
Thanks in advance: please rank these 3 entries by pIC50, highest to lowest. Please express your ranking as an ordered list of the labels. 2, 1, 3

====

# measuredOn: recombinant form of Glutaminase 1 (GAC) (Homo sapiens, UniProt O94925)
# assayName: Recombinant Enzyme Assay (GAC coupled to GDH, NADH absorbance, no preincubation)
# Format: biochemical
# condition: no preincubation; read-out: GAC Delta N2 IC50 no preinc
pIC50: −log10 of the molar value.
readoutLabel: pIC50

Here is how some compounds turned out for pIC50.
>  <compound>
O=C(Cc1c(F)cccc1F)Nc1nnc(CCCCc2nnc(NC(=O)Cc3c(F)cccc3F)s2)s1 [Compound 293]

>  <readoutNumber>
6.62

$$$$
>  <compound>
O=C(Nc1nnc(CCCCc2nnc(NC(=O)[C@@H](O)[C@H](O)c3ccccc3)s2)s1)[C@@H](O)[C@H](O)c1ccccc1 [Compound 226]

>  <readoutNumber>
5.64

$$$$
>  <compound>
O=C(Cc1cccc2[nH]ccc12)Nc1nnc(CCCCc2nnc(NC(=O)Cc3cccc4[nH]ccc34)s2)s1 [Compound 323]

>  <readoutNumber>
7.25

$$$$
>  <compound>
CCOC(=O)Nc1nnc(CCCCc2nnc(NC(=O)Cc3ccccc3)s2)s1 [Compound 244]

>  <readoutNumber>
6.08

$$$$
>  <compound>
CS(=O)(=O)c1ccc(CC(=O)Nc2nnc(CCSCCc3nnc(NC(=O)Cc4ccc(S(C)(=O)=O)cc4)s3)s2)cc1 [Compound 182]

>  <readoutNumber>
6.24

$$$$
>  <compound>
CC(=O)O[C@H](C(=O)Nc1nnc(CCCCc2nnc(NC(=O)[C@@H](OC(C)=O)c3ccccc3)s2)s1)c1ccccc1 [Compound 66]

>  <readoutNumber>
4.70

$$$$
>  <compound>
O=C(Cc1cc2ccccc2s1)Nc1nnc(CCCCc2nnc(NC(=O)Cc3cc4ccccc4s3)s2)s1 [Compound 233]

>  <readoutNumber>
4.82

$$$$

(1) O=C(Nc1nnc(CCCCc2nnc(NC(=O)C3(c4cccs4)CCOCC3)s2)s1)C1(c2cccs2)CCOCC1 [Compound 167]
(2) O=C(Cc1ccccc1)Nc1nnc(CCCCc2nnc(NC(=O)[C@@H]3CCCC[C@H]3C(O)c3ccccc3)s2)s1 (some centres unmarked) [Compound 304]
(3) O=C(CCC(C(=O)O)c1ccccc1)Nc1nnc(CCSCCc2nnc(NC(=O)CCC(C(=O)O)c3ccccc3)s2)s1 (centres unmarked) [Compound 179]
Ascending sort, pIC50. Please express your ranking as an ordered list of the labels. 1, 3, 2
(1: 4.96, 3: 5.51, 2: 5.92)
